# Tested on: Plasmodium berghei
# measurement-notes: Screen against P. berghei liver stage (PbLuc), transformed with Luciferase, at 2uM
# Type: functional, HepG2
# setup-conditions: tested at 2 uM
Among all 68,000 compounds or so, about 2,700 (4%) showed an effect of 50% or more. This is one part of a sample in which strong results are shown more often than they occur.
INHIBITION under 50% gets Y, anything at or over 50% gets N.

> print(dat)
                                    molecule  answer.label
 1  CNc1cc(C2CCCN2C(=O)c2ccc(=O)[nH]n2)ccn1 (centres undefined)             N
 2  O=C(NC1CCN(c2cc(-n3ccnc3)ncn2)CC1)c1ccncc1             Y
 3  COc1ncccc1-c1nc(-c2ccccn2)nn1C1CCS(=O)(=O)C1 (centres undefined)             Y
 4  CCn1nc(C)cc1S(=O)(=O)N1CCC2(CCCN(C(C)C)C2=O)C1 (centres undefined)             N
 5  Cc1nc(C(C)C)ncc1C(=O)N1CCc2c(nc(N(C)C)[nH]c2=O)C1             N
 6   CC(C)c1nc(CS(=O)(=O)Cc2noc(C3CC3)n2)cs1             N
 7  CNc1cc(C2CCCN2C(=O)CCc2ccccc2F)ccn1 (centres undefined)             Y
 8  Cc1nc(NC(=O)N2CCCC(N(C)C)C2)nn1C (centres undefined)             Y
 9  CCSCc1ccnc(NC(=O)C2CCCO2)c1 (centres undefined)             Y
10  Cn1ncc2c1CN(Cc1ccccc1F)CC2COCC1CC1 (centres undefined)             Y
11      CCc1nc(CS(=O)(=O)Cc2noc(C3CC3)n2)cs1             Y
12  CNc1cc(C2CCCN(C(=O)c3ccc(=O)[nH]n3)C2)ccn1 (centres undefined)             Y
13  CNc1cc(C2CCCN2C(=O)CCc2cnn(C)c2C)ccn1 (centres undefined)             N
14  CCCN1CCCC2(CCN(S(=O)(=O)c3cccnc3)C2)C1=O (centres undefined)             Y
15  CN(C)c1nc2c(c(=O)[nH]1)CCN(C(=O)c1c[nH]c(=O)c(Cl)c1)C2             Y
16        Cc1nc2sccn2c1C(=O)N1CCc2[nH]cnc2C1             Y
17  Cc1nc2sccn2c1C(=O)N1CCc2c(nc(N(C)C)[nH]c2=O)C1             N
18          O=C(Nc1cc(CSCCO)ccn1)c1ccc(Cl)o1             Y
19  CCCN1CCCC2(CCN(S(=O)(=O)c3cc(C)nn3CC)C2)C1=O (centres undefined)             N
20    CCc1nc(CN2CCCN(Cc3noc(C4CC4)n3)CC2)cs1             Y
21  O=C(Nc1cccnc1)C1CCN(c2cc(-n3ccnc3)ncn2)CC1             Y
22  CCn1nccc1S(=O)(=O)N1CCC2(CCCN(C(C)C)C2=O)C1 (centres undefined)             Y
23  CCc1nsc(NC2CCCn3nc(COC)nc32)n1 (centres undefined)             Y
